Could you please report measured IC50 at 1 day for the items listed next?
# measurementNotes: in vitro
# Format: cell-based, Murine
# testSettings: mouse, Cytotoxicity assay IC50, 158N

Example entries begin here.
* Nc1ccc([Se]Cc2ccc(Br)cc2)cc1 | ≥ 100 µM
* O=C(O)C=CC(=O)Nc1ccc([Se]Cc2ccc(Br)cc2)cc1 | 29 µM
* O=C1C=CC(=Nc2ccc([Se]Cc3ccc(Br)cc3)cc2)O1 | ≥ 100 µM

Suppose we examine the molecule CC(C)CCC[C@@H](C)[C@H]1CC[C@H]2[C@@H]3C(=O)C=C4C[C@@H](O)CC[C@]4(C)[C@H]3CC[C@]12C [7kc, 7-ketocholesterol, reference compound] ; what IC50 at 1 day value has been reported?
37 µM

---

# System: 158N cells
# measurementNotes: in vitro
# Assay type: cell-based, Murine
# testSettings: mouse, 1 day
# Method: The antiproliferative activities of OSe compounds 2, 3, and 4 were assessed against two oligodendrocyte cell lines, namely, 158 N and 158 JP, by the M.T.T. assay using 7-ketocholesterol as reference control (Supporting info, Supplementary Table S1) ([Vejux et al., 2005]; [Nury et al., 2014]). […] The microplate reader Tecan Sunrise (Tecan, Lyon, France) was used for the reading of the plates at 570 nm. […]
pIC50: −log10 of the molar value.
Could you please report measured pIC50 for the items listed next?

* Nc1ccc([Se]Cc2ccc(Br)cc2)cc1 [Compound 2, 4-((4-bromobenzyl)selanyl)aniline] | < 4.00

# ---- query molecule ----
Suppose we examine the molecule O=C1C=CC(=Nc2ccc([Se]Cc3ccc(Br)cc3)cc2)O1 [Compound 4] ; what pIC50 value has been reported?
< 4.00

---

# measurementNotes: in vitro
# Type: cell-based, Murine
# testSettings: mouse, Cytotoxicity assay IC50, 158JP
recordedMetric: IC50 at 1 day (µM)
One number for each entry, in µM.

- CC(C)CCC[C@@H](C)[C@H]1CC[C@H]2[C@@H]3C(=O)C=C4C[C@@H](O)CC[C@]4(C)[C@H]3CC[C@]12C [7kc, 7-ketocholesterol, reference compound]: 74

Suppose we examine the compound "O=C(O)C=CC(=O)Nc1ccc([Se]Cc2ccc(Br)cc2)cc1" ; what IC50 at 1 day value has been reported?
50

---

Could you please report measured activity at 50 µM for the items listed next?
# Tested on: 158N cells
# measurementNotes: H2-DCFDA assay of ROS levels by flow cytometry
# Type: cell-based, Murine
# testSettings: Mus musculus, compound at 50 µM, ROS level, mean ± SD, * P < 0.05 vs DMSO, read-out: H2-DCFDA assay (% of control), C3 (50 µM)
Give bare numbers, in %.

Example entries begin here.
- O=C1C=CC(=Nc2ccc([Se]Cc3ccc(Br)cc3)cc2)O1: 11
- CC(C)CCC[C@@H](C)[C@H]1CC[C@H]2[C@@H]3C(=O)C=C4C[C@@H](O)CC[C@]4(C)[C@H]3CC[C@]12C [7kc, 7-ketocholesterol, reference compound]: 48
- Nc1ccc([Se]Cc2ccc(Br)cc2)cc1: 48

# ---- query molecule ----
Suppose we examine the molecule "O=C(O)C=CC(=O)Nc1ccc([Se]Cc2ccc(Br)cc2)cc1" ; what activity at 50 µM value has been reported?
31

---

Could you please report measured IC50 for the items listed next?
# Tested on: 158JP cells
# measurementNotes: in vitro
# Type: cell-based, Murine
# testSettings: mouse, 1 day

• Nc1ccc([Se]Cc2ccc(Br)cc2)cc1 = > 100 µM

Query for 158JP cells: what IC50 does the record show for "O=C1C=CC(=Nc2ccc([Se]Cc3ccc(Br)cc3)cc2)O1" ?
> 100 µM

Values from paper PMC9388736
